Where do these numbers come from? They come from PubChem BioAssay (NCATS).

System: PA-1
Experiment: Primary qHTS to identify gynecologic anti-cancer compounds using libraries of approved drugs and bioactive compounds (AID 1345084); further: nearly all actives have a fitted effect of over 55% in size
Conditions: Gynecologic cancer cell panel viability, ATPlite luminescence, 48 h; series mostly up to 57.5 µM
Records with an inconclusive call do not appear. Activity calls are given as the source filed them. The call rests on the fitted dose curve; in most records, active means well fitted cell-killing curve with a large enough effect; inconclusive means small, poorly fitted or top-dose-only effect, or effect the other way; inactive means flat fitted curve, though single readings scatter.
Assign a class; possible classes are label 1 = active, label 0 = inactive

As a guide, the following entries are already answered.
COMPOUND	TESTED_TARGET	LABEL_VALUE
COc1ccc(C2=N[C@@H](c3ccc(Cl)cc3)[C@@H](c3ccc(Cl)cc3)N2C(=O)N2CCNC(=O)C2)c(OC(C)C)c1	PA-1	label 1
CC1COC2(OC3CC4C5CC(O[C@@H]6O[C@H](C)[C@@H](O[C@@H]7O[C@@H](C)[C@H](O)[C@@H](O)[C@H]7O)[C@H](O)[C@H]6O)C6CC(O)CCC6(C)C5CCC4(C)C3C2C)C(O)C1 (stereo partly specified)	PA-1	label 0
CNC(=O)c1ccccc1Nc1nc(Nc2ccc3c(c2OC)CCC[C@@H](N2CCN(CCO)CC2)C3)ncc1Cl	PA-1	label 1

Can you look up the reported call for C=CC(C)(CC/C=C(\C)C(=O)OC)OC1OC(COC(=O)CC(C)(O)CC(=O)O)C(OC2OC(CO)C(O)C(O)C2O)C(O)C1O (stereo unspecified) for me?
label 0
